experiment: NCI Yeast Anticancer Drug Screen. Data for the rad18 strain (AID 177); settings: S. cerevisiae rad18 mutant growth inhibition; at 11.0 µM; stronger effect = higher value
The panel holds about 79,000 compounds, 15% with a hit somewhere; the sample as a whole holds those more often.
Below: a set of entries, each annotated with reported growth inhibition.
measured attribute: growth inhibition (%)

compound=CN(C)Cc1cc(N=Nc2ccc(Cl)cc2)ccc1OC(=O)c1ccccc1 numeric_value=-16
compound=CCOc1ccc(NC(=O)C2=C(C)NC(C)=C(C(=O)Nc3ccc(OCC)cc3)C2c2cccc([N+](=O)[O-])c2)cc1 numeric_value=3
compound=O=[N+]([O-])c1ccc(N/N=C/Cc2ccccc2)c([N+](=O)[O-])c1 numeric_value=11
compound="CCCCCCC(O)CNCc1ccnc2ccc(OC)cc12 (centres undefined)" numeric_value=8
compound=O=C(NCCCl)Sc1ccc(Cl)cc1 numeric_value=5
compound=CCN(CC)CCNc1ccc2ncn3c4cc(OC)c(OC)c(=O)c4c(O)c1c23 numeric_value=5
compound=CCOC(=O)C#Cc1ccc([N+](=O)[O-])cc1 numeric_value=0
compound="O=C1OC(OC/C(Br)=C(\\Br)COC2OC(=O)C(Cl)=C2Cl)C(Cl)=C1Cl (centres undefined)" numeric_value=9
compound="CC(=O)SC(C[N+](=O)[O-])c1ccccc1 (centres undefined)" numeric_value=55
compound=COc1ccc(C/C=N/Nc2ccc([N+](=O)[O-])cc2)cc1OC numeric_value=26
compound=CCN(CC)CCNc1ccc([N+](=O)[O-])c2nc3ccccc3c(N)c12 numeric_value=-10
compound=COc1cccc(/C=N/C(/N=C/c2cccc(OC)c2O)c2cccc(OC)c2O)c1O numeric_value=21
compound=Cc1cc2cc3cc(C)c(N)cc3nc2cc1N numeric_value=-11
compound=O=C1C=C(Cl)C(=O)N1c1cccc(Cl)c1 numeric_value=99

---

experiment: NCI Yeast Anticancer Drug Screen. Data for the mlh1 rad18 strain (AID 175); settings: S. cerevisiae mlh1 rad18 strain growth inhibition; at 50.0 µM (retest, dose inferred, filed as 5.0)
About 79,000 compounds went through this panel and 15% of them were active in at least one assay; those are over-represented in the sample as a whole. Calls of active or inactive are those of the source. Rule as the data show it: active = growth inhibition above about 70%; inactive = the rest.
Classes used: active, inactive

molecule=CCN(CC)CCNc1ccc2ncn3c4cc(OC)c(OC)c(=O)c4c(O)c1c23 assigned_label=inactive
molecule=Cc1cc(NCCCCCCCCNc2cc(C)nc3cc(N)ccc23)c2ccc(N)cc2n1 assigned_label=active
molecule="CC1CC(C)(C)CC(OCCN2CCCCC2)(c2ccccc2)C1 (configuration not stated)" assigned_label=active
molecule=S=C1SCN(C2CCCCC2)CN1C1CCCCC1 assigned_label=active
molecule=CC(C)(C)C1=CC(=CC=C2C=CN(CCCCCCCCCCCO)C=C2)C=C(C(C)(C)C)C1=O assigned_label=active
molecule=O=C(O)c1cc2ccc(Cl)cc2c(O)c1C1=CCCCC1 assigned_label=active
molecule="O=C(CC(C(=O)O)N1CCOCC1)c1ccccc1 (configuration not stated)" assigned_label=inactive
molecule=O=C(/C=C\c1cccc(C(F)(F)F)c1)c1ccccc1 assigned_label=active
molecule=CC(C)/C(Cl)=N\OC(=O)Nc1ccc(F)cc1F assigned_label=inactive
molecule=CCOc1ccccc1N=Cc1c2ccccc2cc2ccccc12 assigned_label=active
molecule=O=C(Nc1ccc(Cl)cc1)Nc1nnc2nc(C(C(=O)c3cccc([N+](=O)[O-])c3Cl)c3nc4nnc(NC(=O)Nc5ccc(Cl)cc5)n4[nH]c3=O)c(=O)[nH]n12 assigned_label=inactive
molecule=O=C1C=C(Cl)C(=O)C(c2ccc(Cl)cc2)=C1 assigned_label=active
molecule=CCCC/C=C/C(C)(C(=O)OCC)C(=O)OCC assigned_label=active
molecule=O=[N+]([O-])c1cccc2nc3ccccc3c(NCCC[N+]3([O-])CCCCC3)c12 assigned_label=active
molecule=Cc1ccc(NCCNCCO)c2c(=O)c3cc(O)ccc3sc12 assigned_label=active
molecule=O=C1NC(SSC2=NNC3(C(=O)N2)c2ccccc2-c2ccccc23)=NNC12c1ccccc1-c1ccccc12 assigned_label=inactive
molecule=C/C(=N\Nc1ccc([N+](=O)[O-])cc1[N+](=O)[O-])c1sc(-n2nc(-c3ccccc3)cc2-c2ccccc2)nc1C assigned_label=inactive
molecule="Cc1ccc(NC(c2ccccc2)c2ccc3cccnc3c2O)cc1 (configuration not stated)" assigned_label=inactive
molecule="CCC1(OC(=O)CN2CCN(CCO)CC2)C(=O)OCc2c1cc1n(c2=O)Cc2cc3ccccc3nc2-1 (configuration not stated)" assigned_label=inactive
molecule="COC(=O)C1(C)CCc2c(ccc3ccccc23)C1=O (configuration not stated)" assigned_label=inactive
molecule=CCOC(=O)c1cc([N+](=O)[O-])c(Sc2ncnc3nc[nH]c23)c([N+](=O)[O-])c1 assigned_label=active
molecule="CC1CC[C@]2(C(=O)O)CCC3(C)C(=CC(=O)C4[C@@]5(C)CCC(=O)C(C)(C)C5CC[C@]43C)[C@@H]2[C@H]1C (some centres not stated)" assigned_label=active
molecule=CCCCOCn1c(=O)[nH]c(=O)c2cc(Br)ccc21 assigned_label=inactive
molecule=CCOC(=N)c1ccc(O)c(OC)c1 assigned_label=inactive
molecule=O=C(O)CNC(=S)Nc1ccccc1 assigned_label=active
molecule=CC(C)c1ccc(NC(=S)NC(=O)c2ccccc2)cc1 assigned_label=inactive
molecule=NC(=O)C(=O)NNc1ccccc1 assigned_label=active
molecule=CC(=O)Nc1ccc2c(c1)Cc1cc(N=C3C=CC(=O)O3)ccc1-2 assigned_label=active
molecule=CN(CCN(C)Cc1ccccc1)Cc1ccccc1 assigned_label=active
molecule=COc1ccc2[nH]cc([C@@H]3C4CCC(C4)[C@H]3NCc3cccc(CN[C@H]4C5CCC(C5)[C@@H]4c4c[nH]c5ccc(OC)cc45)c3)c2c1 assigned_label=active
molecule=CS(=O)(=O)SCc1ccc([N+](=O)[O-])cc1 assigned_label=active
molecule=O=C(/C=C/c1cc(Cl)cc(Cl)c1O)c1cccc(O)c1 assigned_label=active
molecule="OC(/C=C/c1ccccc1)(Cc1cc(-c2ccccc2)n[nH]1)c1ccccc1 (configuration not stated)" assigned_label=active
molecule="Cc1ccc(NC(=O)/C(CC2N=c3c(ccc4c(O)c5ccccc5c(O)c34)=NC2O)=N/NC(C)(C)C)cc1 (configuration not stated)" assigned_label=inactive
molecule="COc1ccc(NC(=O)CC2SC(=Nc3ccccc3C)NC2=O)c([N+](=O)[O-])c1 (configuration not stated)" assigned_label=inactive
molecule=CCOC1(c2cccc([N+](=O)[O-])c2)c2ccccc2Oc2ccccc21 assigned_label=active
molecule=CC(/C=C/c1ccccc1)=N\NC(N)=S assigned_label=active
molecule=Cc1cc(=O)oc2c(C)c3occc(=O)c3cc12 assigned_label=inactive
molecule=O=c1c2ccccc2nc(-c2ccccc2)n1O assigned_label=active
molecule=CCn1c(O)c(C=Nc2ccccc2)s/c1=N/Nc1nc(-c2ccccc2)cs1 assigned_label=inactive
molecule=CC1=NOC(=O)/C1=C/c1ccc2c(c1)OCO2 assigned_label=active
molecule=COc1ccc(/C=C/c2sc3ccccc3[n+]2CCCCI)cc1OC assigned_label=inactive

---

assay: NCI Yeast Anticancer Drug Screen. Data for the rad50EPP+ strain (AID 151);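 note: 0% = growth of vehicle-treated control cultures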; details: S. cerevisiae rad50 mutant strain, at 33.0 µM
The panel holds about 79,000 compounds, 15% with a hit somewhere; the sample as a whole holds those more often. Activity calls are given as the source filed them. Rule as the data show it: active = growth inhibition above about 70%; inactive = the rest.
Classes used: active, inactive

molecule="COC(=O)NC1C(C)OC(OC2C/C=C(/C)C3C=CC4C(OC5CC(OC6CC(O)C(OC7CC(O)C(OC)C(C)O7)C(C)O6)C(O)C(C)O5)C(C)CC(C)C4C3(C)/C(O)=C3\\C(=O)OC4(CC(C)C(CO)=CC4/C=C\\2C)C3=O)CC1(C)[N+](=O)[O-] (stereo not drawn)" assigned_label=inactive
molecule="CCCOC(=O)C(F)C(Br)C(=O)OCCC (stereo not drawn)" assigned_label=active
molecule=CCCC(=O)Oc1c(C)cc([N+](=O)[O-])cc1[N+](=O)[O-] assigned_label=active

---

test: NCI Yeast Anticancer Drug Screen. Data for the rad14 strain (AID 159);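 note: 0% = growth of vehicle-treated control cultures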; conditions: S. cerevisiae rad14 strain growth inhibition; at 3.7 µM
The panel holds about 79,000 compounds, 15% with a hit somewhere; the sample as a whole holds those more often. The source made the active and inactive calls. Rule as the data show it: active = growth inhibition above about 70%; inactive = the rest.
Classes used: y for active, n for inactive

mol=COc1cccc(/C=N/C(/N=C/c2cccc(OC)c2O)c2cccc(OC)c2O)c1O assigned_label=n
mol=COc1ccc(C/C=N/Nc2ccc([N+](=O)[O-])cc2)cc1OC assigned_label=n
mol=CCOC1=C/C(=N\Nc2ccc([N+](=O)[O-])cc2)CCC1 assigned_label=n
mol=CNCCCNc1c2ccccc2nc2cccc([N+](=O)[O-])c12 assigned_label=y
mol=Cc1c(C)c(C)c(CSC(=N)N)c(C)c1C assigned_label=n
mol=COc1cc2ccnc(-c3c4ccccc4c(N)c4c(OC)c(OC)ccc34)c2cc1OC assigned_label=n

---

experiment: NCI Yeast Anticancer Drug Screen. Data for the sgs1 strain (AID 173);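 note: 0% = growth of vehicle-only control cultures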; conditions: S. cerevisiae sgs1 mutant, at 33.0 µM, stronger effect = higher value
About 79,000 compounds went through this panel and 15% of them were active in at least one assay; those are over-represented in the sample as a whole. Activity calls are given as the source filed them. Rule as the data show it: active = growth inhibition above about 70%; inactive = the rest.
measured attribute: growth inhibition

compound=CC1(C)CC(=O)C(/C=N/c2nc(-c3ccccc3)cs2)=C(O)C1 measured_attribute="growth inhibition" result="63% (inactive)"
compound=O=c1nc2n(Cc3ccccc3)c3ccccc3nc-2c(=O)[nH]1 measured_attribute="growth inhibition" result="94% (active)"
compound="COc1ccc(NC(=O)CC2SC(=Nc3ccccc3C)NC2=O)c([N+](=O)[O-])c1 (stereo not drawn)" measured_attribute="growth inhibition" result="37% (inactive)"
